Catalogue of β-Arrestin EC50 readings, one per entry.
- ASSAY_TARGET: chemokine receptor CXCR7 (UniProt P25106 1-362, limits assumed)
- Sequence (P25106 whole entry): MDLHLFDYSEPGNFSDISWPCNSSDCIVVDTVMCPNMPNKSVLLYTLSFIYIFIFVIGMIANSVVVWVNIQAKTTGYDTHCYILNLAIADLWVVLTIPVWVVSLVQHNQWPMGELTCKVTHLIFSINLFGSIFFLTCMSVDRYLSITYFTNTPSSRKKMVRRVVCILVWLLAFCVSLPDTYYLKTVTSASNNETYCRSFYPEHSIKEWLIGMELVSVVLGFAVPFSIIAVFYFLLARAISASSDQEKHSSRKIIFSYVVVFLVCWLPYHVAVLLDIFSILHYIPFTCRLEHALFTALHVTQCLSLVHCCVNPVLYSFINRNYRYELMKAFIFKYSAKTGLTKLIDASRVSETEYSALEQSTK
- ASSAY_EXPLANATION: cell-based or functional assay
Square brackets hold non-standard residues; d marks the D form. dPro(cis-4-NH2) = N[C@H]1CN[C@@H](C(=O)O)C1; dPro(4S-NH2) = N[C@@H]1CN[C@@H](C(=O)O)C1; Tic = O=C(O)[C@@H]1Cc2ccccc2CN1; Orn(Ar2) = not defined here
Numbers only; they are read as nM.

• cyclo([Orn(Ar2)][dF]WR[dPro(cis-4-NH2)][Tic]) (reading uncertain; also: printed as cyclo(-Orn(Ar2)-^DPhe-Trp-Arg-^DPro((4R)NH2)-Tic-)) [cyclo(-Orn(Ar2)-^DPhe-Trp-Arg-^DPro((4R)NH2)-Tic-)] = 209
• cyclo(R[dF]WR[dPro(4S-NH2)][Tic]) (SMILES N=C(N)NCCC[C@@H]1NC(=O)[C@@H]2Cc3ccccc3CN2C(=O)[C@H]2C[C@H](N)CN2C(=O)[C@H](CCCNC(=N)N)NC(=O)[C@H](Cc2c[nH]c3ccccc23)NC(=O)[C@@H](Cc2ccccc2)NC1=O) [cyclo(-Arg-^DPhe-Trp-Arg-^DPro((4S)NH2)-Tic-)] = 13.1

Query binder follows.
Can you look up the measured β-Arrestin EC50 of cyclo(L[dR]RW[dP]T) (SMILES CC(C)C[C@@H]1NC(=O)[C@H]([C@@H](C)O)NC(=O)[C@H]2CCCN2C(=O)[C@H](Cc2c[nH]c3ccccc23)NC(=O)[C@H](CCCNC(=N)N)NC(=O)[C@@H](CCCNC(=N)N)NC1=O) [cyclo(-Leu-^DArg-Arg-Trp-^DPro-Thr-)] for me? 5.3
